Where these numbers come from: the supplement of paper PMC10724198

System: Saccharomyces cerevisiae;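 note: PSI is a weighted mean of each variant's read distribution over the sorted stability bins, computed only for variants having over 10 reads in total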
Experiment: protein stability index of tFT-peptide fusion in deletion strain of DAS1 (PSI (0-1 scale)); higher = more stable (slower turnover)
assayMetric: protein stability index
# respond with the number and nothing more

Here's what some known entries look like.
seq | measValue
KKHKKGQKHKIN | 0.588
VRAAVGGWRLVG | 0.681
VRGAVGGWRLVGK | 0.667
PSLMASFWRVVG | 0.707
LVVYLSCVACINN | 0.037
KKHKKGQKQLIN | 0.627
VRGAIGGWRLVG | 0.684
LKILRQQMNHQN | 0.584
PDKRNLLIKLLN | 0.608
FSMRWTFRYWVP | 0.541

Entry `RLIQPLPGQFLN` ; protein stability index = 0.612

// sample `LVVYLSCVACIND` , its protein stability index was 0.0356
